Origin of measurements: PubChem BioAssay (Tox21)

assay: p53 small molecule agonists, cell-based qHTS assay (AID 1963582); details: HCT-116 p53RE-bla reporter, beta-lactamase FRET ratio, 16 h; series mostly up to 66 µM; note: % is set by controls: 0 for no effect and ±100 for the full control effect
Results filed as inconclusive are left out. Calls of active or inactive are those of the source. Calls come from the whole dose curve; as a rule, active = well fitted activation curve with a large enough effect in the signal ratio in the repeat runs (not every such curve was filed as active); inconclusive = weak or mixed curves; inactive = flat fitted curve, though single readings scatter; the % refers to the signal ratio.

# COMPOUND, outcome
records = [
    ("CC#C[C@]1(O)CC[C@H]2[C@@H]3C[C@H](C)C4=CC(=O)CC[C@]4(C)[C@H]3CC[C@@]21C", "inactive"),
    ("BrCBr", "inactive"),
    ("CC1NCCOC1c1ccccc1 (stereo not drawn)", "inactive"),
    ("N#CC(C#N)=NNc1cccc(Cl)c1", "inactive"),
    ("Oc1ccc2ccc3cccc4ccc1c2c34", "inactive"),
    ("BrCC(Br)C1CCC(Br)C(Br)C1 (stereo not drawn)", "inactive"),
    ("C=C(C)CN(CC)c1c([N+](=O)[O-])cc(C(F)(F)F)cc1[N+](=O)[O-]", "inactive"),
    ("ClC1=C(Cl)[C@]2(Cl)[C@H]3[C@H]([C@@H]4C=C[C@H]3C4)[C@@]1(Cl)C2(Cl)Cl", "inactive"),
    ("S=C=Nc1ccccc1", "inactive"),
    ("COc1cc(C[C@@H](C)N)c(OC)cc1Br", "inactive"),
    ("C=CC(=O)N(C)C", "inactive"),
    ("CCOP(=O)(NC(C)C)Oc1ccc(SC)c(C)c1 (stereo not drawn)", "inactive"),
    ("CC(C)(C)C(O)C(Oc1ccc(-c2ccccc2)cc1)n1cncn1 (stereo not drawn)", "inactive"),
]

---

assay: Nuclear factor erythroid 2-related factor 2/antioxidant responsive element (Nrf2/ARE) small molecule agonists: qHTS cell viability counter screen in human keratinocytes (AID 1919968); conditions: KeratinoSens HaCaT ARE cells viability, CellTiter-Fluor, 24 h; series mostly up to 92.4 µM; note: % is set by controls: 0 for no effect and ±100 for the full control effect; nearly all actives have a fitted effect of over 55% in size
Results filed as inconclusive are left out. Active and inactive are the calls of the source. The call rests on the fitted dose curve; in most records, active means well fitted cell-killing curve with a large enough effect in the repeat runs; inconclusive means weak or mixed curves, or effect the other way; inactive means flat fitted curve, though single readings scatter.
# maps each entry to its activity change, negative = cytotoxicity
MEASURED_PARAMETER: activity change, negative = cytotoxicity

# COMPOUND, MEASURED_PARAMETER, RESULT
data = [
    ("NCC(CC(=O)O)c1ccc(Cl)cc1 (configuration not stated)", "activity change, negative = cytotoxicity", "20.7% [at 0.349 µM] (inactive)"),
    ("Nc1c(Br)cc(Br)c2c1C(=O)c1ccccc1C2=O", "activity change, negative = cytotoxicity", "-10.3% [at 19 µM] (inactive)"),
    ("Clc1c(Cl)c(Cl)c(Cl)c(Cl)c1Cl", "activity change, negative = cytotoxicity", "1.8% [at 8.39 µM] (inactive)"),
    ("O=C1c2ccccc2C(=O)c2ccccc21", "activity change, negative = cytotoxicity", "8.6% [at 19 µM] (inactive)"),
    ("CCCCCCC(=O)CCCCCC/C=C/C[C@@H](O)[C@H](O)[C@@](N)(CO)C(=O)O", "activity change, negative = cytotoxicity", "-1.3% [at 19 µM] (inactive)"),
    ("CC(=O)[O-].CC(=O)[O-].CC(=O)[O-].[Sb+3]", "activity change, negative = cytotoxicity", "0.851% [at 3.27 µM] (inactive)"),
    ("CC1=C(C(=O)O)N2C(=O)[C@@H](N)[C@H]2SC1", "activity change, negative = cytotoxicity", "0.0817% [at 19 µM] (inactive)"),
]
